# Assay procedure: Antiproliferative activity against human H7402 cells in presence of 5-FU after 48 hrs by MTT assay
# Stated conditions: H7402, 48 h
pIC50: −log10 of the molar value.
Measurement label: pIC50

{"Compound": "CC(C)C[C@H](NC(=O)[C@@H](O)[C@H](N)Cc1ccccc1)C(=O)O [UBENIMEX]", "Numeric result": 4.75}

----------
# Assay procedure: cells
# Stated conditions: Homo sapiens, ES-2, 48 h

{"Compound": "O=c1[nH]cc(F)c(=O)[nH]1 [FLUOROURACIL]", "IC50": "37.1 µM"}

----------
Measured IC50 of individual entries
# Test system: A549
# Assay procedure: Antiproliferative activity against human A549 cells after 48 hrs by MTT assay
# Stated conditions: A549, 48 h

{"Smiles string": "CC(C)C[C@H](NC(=O)[C@@H](O)[C@H](N)Cc1ccccc1)C(=O)NCC(=O)OCn1cc(F)c(=O)[nH]c1=O.Cl", "IC50, µM": 15.3}
{"Smiles string": "O=c1[nH]cc(F)c(=O)[nH]1", "IC50, µM": 17}
